The reported numbers originate from paper PMC12113681.

- EXPERIMENTAL_SYSTEM: BChE (horse-serum, E.C. 3.1.1.8) (Equus caballus, UniProt P81908)
- Construct: Sigma, St. Louis, MO, USA, horse-serum, E.C; 3.1.1.8; purchased Sigma; host or cells: horse serum
- TEST_NAME: biochemical
- RECORDED_CONDITIONS: read-out: IC50
pIC50: −log10 of the molar value.
MEASURED_QUANTITY: pIC50

>>> result("COc1cc2c(NC3CCN(C)CC3)nc(N3CCCN(C)CC3)nc2cc1OCc1ccccc1")
"~4.30"

* * *

Quick reference: Ki of the listed items.
- EXPERIMENTAL_SYSTEM: BChE (Equus caballus)
- Sequence (P81908 whole entry): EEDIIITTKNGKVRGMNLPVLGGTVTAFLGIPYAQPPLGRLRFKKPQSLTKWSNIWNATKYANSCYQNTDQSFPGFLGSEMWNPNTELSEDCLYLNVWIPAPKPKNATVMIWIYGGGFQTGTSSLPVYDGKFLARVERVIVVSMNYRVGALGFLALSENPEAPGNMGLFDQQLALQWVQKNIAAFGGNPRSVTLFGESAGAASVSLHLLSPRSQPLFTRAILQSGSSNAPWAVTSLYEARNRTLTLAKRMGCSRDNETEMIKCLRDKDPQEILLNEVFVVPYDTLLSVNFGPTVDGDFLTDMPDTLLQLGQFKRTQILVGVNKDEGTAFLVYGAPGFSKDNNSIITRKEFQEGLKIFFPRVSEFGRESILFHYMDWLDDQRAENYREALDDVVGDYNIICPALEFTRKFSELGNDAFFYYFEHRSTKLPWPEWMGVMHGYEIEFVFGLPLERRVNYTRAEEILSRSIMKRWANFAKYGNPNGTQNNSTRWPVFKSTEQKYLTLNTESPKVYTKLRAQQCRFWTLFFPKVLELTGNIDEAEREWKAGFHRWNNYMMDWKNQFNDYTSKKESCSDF
- TEST_NAME: BChE enzyme kinetic study (Lineweaver-Burk)
MEASURED_QUANTITY: Ki (µM)

>>> numeric_result("CCCN(CCc1cccs1)[C@H]1CCc2c(O)cccc2C1")
6.76
>>> numeric_result("CCCCN1CCC(CNC(=O)c2c3n(c4ccccc24)CCCO3)CC1")
10.7

* * *

- TEST_NAME: in vitro
- RECORDED_CONDITIONS: rat
MEASURED_QUANTITY: viability at 50 µM (%)

>>> numeric_result("Nc1c2c(nc3ccccc13)CCCC2")
65

* * *

- EXPERIMENTAL_SYSTEM: BChE (horse-serum, E.C. 3.1.1.8) (Equus caballus, UniProt P81908)
- Construct: Sigma, St. Louis, MO, USA, horse-serum, E.C; 3.1.1.8; purchased Sigma; host or cells: horse serum
- TEST_NAME: biochemical
pIC50: −log10 of the molar value.
MEASURED_QUANTITY: pIC50

>>> numeric_result("CN1C[C@H](CNC(=O)OCc2ccccc2)C[C@@H]2c3cccc4c3c(cn4C)C[C@H]21 [Metergoline]")
4.74
>>> numeric_result("CCCCN1CCC(CNC(=O)c2c3n(c4ccccc24)CCCO3)CC1 [piboserod]")
4.81
>>> numeric_result("CCCN(CCc1cccs1)[C@H]1CCc2c(O)cccc2C1 [Rotigotine]")
4.89

* * *

- EXPERIMENTAL_SYSTEM: BChE (Equus caballus)
- TEST_NAME: Fluorescence quenching experiment (Stern-Volmer, Van't Hoff analysis)
- Format: binding
- RECORDED_CONDITIONS: Ka (binding constant), 304 K
The entries below come with measured Kd values attached.
MEASURED_QUANTITY: Kd (µM)

>>> numeric_result("CCCN(CCc1cccs1)[C@H]1CCc2c(O)cccc2C1 [Rotigotine]")
34.5
>>> numeric_result("CCCCN1CCC(CNC(=O)c2c3n(c4ccccc24)CCCO3)CC1 [piboserod]")
14.9

* * *

- EXPERIMENTAL_SYSTEM: BChE (Equus caballus)
- TEST_NAME: Fluorescence quenching experiment (Stern-Volmer, Van't Hoff analysis)
- Type: binding
- RECORDED_CONDITIONS: Ka (binding constant), 310 K
pKd: −log10 of the molar value.
// values below are reported pKd
MEASURED_QUANTITY: pKd

>>> numeric_result("CCCN(CCc1cccs1)[C@H]1CCc2c(O)cccc2C1")
4.17
>>> numeric_result("CCCCN1CCC(CNC(=O)c2c3n(c4ccccc24)CCCO3)CC1")
4.69
